- experimental system: MAO-A (Homo sapiens, UniProt P21397)
- Sequence (P21397 whole entry): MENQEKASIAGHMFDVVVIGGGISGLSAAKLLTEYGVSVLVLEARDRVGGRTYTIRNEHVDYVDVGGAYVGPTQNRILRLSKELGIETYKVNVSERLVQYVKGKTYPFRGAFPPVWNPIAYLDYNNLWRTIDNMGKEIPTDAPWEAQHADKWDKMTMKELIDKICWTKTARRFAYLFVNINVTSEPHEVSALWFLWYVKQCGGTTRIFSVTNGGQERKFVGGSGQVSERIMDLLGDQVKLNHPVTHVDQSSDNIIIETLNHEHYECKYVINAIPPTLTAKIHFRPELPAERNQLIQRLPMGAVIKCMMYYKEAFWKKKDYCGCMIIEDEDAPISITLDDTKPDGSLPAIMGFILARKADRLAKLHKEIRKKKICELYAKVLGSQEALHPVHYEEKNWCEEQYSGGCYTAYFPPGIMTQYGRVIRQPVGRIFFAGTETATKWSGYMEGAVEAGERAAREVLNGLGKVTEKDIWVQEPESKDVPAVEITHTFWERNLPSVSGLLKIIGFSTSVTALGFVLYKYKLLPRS
- assay text: Inhibition of human recombinant MAO-A at 10 uM
The entries below come with measured inhibition at 10 µM values attached.
Quick note: give the figure in %, leave out the unit.

Field: example entries. Status: answers known.
CCCCCCC1OC(=O)c2cc(N3N=C(c4ccccc4O)CC3=O)ccc21 (stereo not given) | 21.7
CCCCCCCC1OC(=O)c2cc(N3N=C(c4ccccc4O)CC3=O)ccc21 (stereo not given) | 14.5
CCCCC1OC(=O)c2cc(N3N=C(c4ccc(Br)cc4O)CC3=O)ccc21 (stereo not given) | 14.8

In plain terms, CCCCCCCC1OC(=O)c2cc(N3N=C(c4cc(Cl)ccc4O)CC3=O)ccc21 (stereo not given) has a documented inhibition at 10 µM of 32.6

GET /value?item= CCCCC1OC(=O)c2cc(N3N=C(c4cc(Br)ccc4O)CC3=O)ccc21 (stereo not given) &field=inhibition at 10 µM returns 10.9
